Tested on: PDE IV
protocol.text: Inhibition of PDE IV activity (Bauer and Schwabe method adapted to microtiter plates)
Assay type: biochemical
measurement.conditions: Table A; two-step PDE / 5'-nucleotidase assay, ion-exchange separation
property.name: Inhibition of PDE IV activity, -log IC50
Reply with the value as a number alone.

### Prompt I have this molecule here, COc1ccc(C(=O)Nc2c(Cl)cncc2Cl)c2c1OC1(CCOCC1)C2 [Compound 5] , and I need its recorded Inhibition of PDE IV activity, -log IC50.
### Response 8.57

### Prompt I have this molecule here, COc1ccc(C(=O)Nc2c(Cl)cccc2Cl)c2c1OC1(CCCC1)C2 [Compound 7] , and I need its recorded Inhibition of PDE IV activity, -log IC50.
### Response 8.57

### Prompt I have this molecule here, CCC1(CC)Cc2c(C(=O)Nc3c(Cl)cncc3Cl)ccc(OC)c2O1 [Compound 6] , and I need its recorded Inhibition of PDE IV activity, -log IC50.
### Response 8.63

### Prompt I have this molecule here, COc1ccc(C(=O)Nc2c(Cl)cncc2Cl)c2c1OC1(CCCC1)C2 [Compound 2] , and I need its recorded Inhibition of PDE IV activity, -log IC50.
### Response 9.42

### Prompt I have this molecule here, COc1ccc(C(=O)Nc2c(Cl)cncc2Cl)c2c1OC(C)(C)C2 [Compound 1] , and I need its recorded Inhibition of PDE IV activity, -log IC50.
### Response 8.47

### Prompt I have this molecule here, COc1ccc(C(=O)Nc2c(F)cccc2F)c2c1OC1(CCCC1)C2 [Compound 8] , and I need its recorded Inhibition of PDE IV activity, -log IC50.
### Response 8.42

### Prompt I have this molecule here, COc1ccc(C(=O)Nc2c(Cl)cncc2Cl)c2c1OC1(CCCCC1)C2 [Compound 4] , and I need its recorded Inhibition of PDE IV activity, -log IC50.
### Response 9.09

### Prompt I have this molecule here, O=C(Nc1c(Cl)cncc1Cl)c1ccc(OC(F)F)c2c1CC1(CCCC1)O2 [Compound 3] , and I need its recorded Inhibition of PDE IV activity, -log IC50.
### Response 9.87
